- Test system: acetic acid-induced writhing
- PROTOCOL_DETAILS: Writhing test (acetic acid);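 also: ++ means marked effect and + means moderate effect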
- Type: in vivo, rat
- STATED_CONDITIONS: 100 mg/kg
MEASURED_PARAMETER: Analgesic activity

{"columns": ["COMPOUND", "TARGET_UNDER_TEST", "MEASURED_PARAMETER", "EXPERIMENTAL_RESULT"],
 "data": [
  ["Cc1ccc(C(O)c2c[nH]cn2)cc1 (stereo not drawn)", "acetic acid-induced writhing", "Analgesic activity", "++"],
  ["CCOC(c1c[nH]cn1)c1c(C)cccc1C (stereo not drawn)", "acetic acid-induced writhing", "Analgesic activity", "++"],
  ["Cc1ccc(Cc2c[nH]cn2)c(C)c1", "acetic acid-induced writhing", "Analgesic activity", "++"],
  ["Cc1cccc(C)c1C(O)c1nc[nH]c1C (stereo not drawn)", "acetic acid-induced writhing", "Analgesic activity", "+"],
  ["COC(c1c[nH]cn1)c1c(C)cccc1C (stereo not drawn)", "acetic acid-induced writhing", "Analgesic activity", "+"],
  ["COc1ccc(C(O)c2c[nH]cn2)cc1 (stereo not drawn)", "acetic acid-induced writhing", "Analgesic activity", "+"]
]}

* * *

# minimal effective dose per record follows
- System: anesthetized Sprague-Dawley rats (blood pressure, pulse frequency)
- PROTOCOL_DETAILS: Blood pressure and pulse frequency in anesthetized normal-weight Sprague-Dawley rats (i.v.)
- Format: in vivo, rat (Sprague-Dawley)
- STATED_CONDITIONS: Rattus norvegicus, iv, read-out: Blood Pressure Minimum Dose having a significant lowering effect
MEASURED_PARAMETER: minimal effective dose

{"columns": ["COMPOUND", "EXPERIMENTAL_RESULT"],
 "data": [
  ["Cc1cc(C)c(Cc2c[nH]cn2)c(C)c1", "0.05 to 0.2 mg/kg"],
  ["CCc1cccc(CC)c1C(O)c1c[nH]cn1 (stereo not drawn)", "0.3 to 1 mg/kg"],
  ["CCc1cccc(CC)c1Cc1c[nH]cn1", "0.03 to 0.2 mg/kg"],
  ["COc1ccccc1C(O)c1c[nH]cn1 (stereo not drawn)", "0.3 to 1 mg/kg"],
  ["Cc1cccc(C)c1C(O)c1c[nH]cn1 (stereo not drawn)", "0.1 to 3 mg/kg"],
  ["Cc1cccc(C)c1Cc1cnc[nH]1", "0.003 to 0.1 mg/kg"],
  ["Cc1ccccc1Cc1c[nH]cn1", "0.01 to 0.1 mg/kg"],
  ["Cc1cccc(Cc2c[nH]cn2)c1C", "0.01 to 0.1 mg/kg"],
  ["Clc1cccc(Cl)c1Cc1cnc[nH]1", "0.03 to 0.1 mg/kg"]
]}

* * *

- Tested on: acetic acid-induced writhing
- PROTOCOL_DETAILS: Writhing test (acetic acid);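 also: ++ means marked effect and + means moderate effect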
- Type: in vivo, rat
- STATED_CONDITIONS: 100 mg/kg

{"columns": ["COMPOUND", "TARGET_UNDER_TEST", "Analgesic activity"],
 "data": [
  ["Cc1ccccc1C(O)c1c[nH]cn1 (stereo not shown)", "acetic acid-induced writhing", "++"],
  ["COc1cccc(C(O)c2c[nH]cn2)c1 (stereo not shown)", "acetic acid-induced writhing", "++"],
  ["CCc1ccccc1C(O)c1c[nH]cn1 (stereo not shown)", "acetic acid-induced writhing", "++"],
  ["Cc1cccc(C(O)c2c[nH]cn2)c1 (stereo not shown)", "acetic acid-induced writhing", "++"],
  ["COc1ccccc1C(O)c1c[nH]cn1 (stereo not shown)", "acetic acid-induced writhing", "+"],
  ["Cc1ccc(C(O)c2c[nH]cn2)c(C)c1 (stereo not shown)", "acetic acid-induced writhing", "+"],
  ["Cc1cccc(C(O)c2c[nH]cn2)c1C (stereo not shown)", "acetic acid-induced writhing", "++"]
]}

* * *

Recorded selectivity ratio values for a group of molecules are listed next.
- PROTOCOL_DETAILS: Preventive effect on formation of indomethacin-induced ulcers
- Assay type: in vivo, rat (female Sprague-Dawley)
- STATED_CONDITIONS: rat, in vivo, iv; LD50 (mouse, i.v.) / ED50 (ulcer); read-out: Therapeutic Index
MEASURED_PARAMETER: selectivity ratio

{"columns": ["COMPOUND_SMILES", "EXPERIMENTAL_RESULT"],
 "data": [
  ["Cc1cc(C)c(Cc2c[nH]cn2)c(C)c1", 2100],
  ["Cc1cccc(Cc2c[nH]cn2)c1C", 7000],
  ["Clc1ccccc1Cc1c[nH]cn1", 2170]
]}

* * *

- PROTOCOL_DETAILS: Acute toxicity in female NMRI mice, i.v.
- STATED_CONDITIONS: in vivo, iv, mouse
The threshold is 60 mg/kg. Values of LD50 beneath it are tagged 1 (yes); values meeting or exceeding it are tagged 0 (no).

{"columns": ["COMPOUND", "DISCRETE_LABEL"],
 "data": [
  ["Cc1cccc(C)c1C(=O)c1c[nH]cn1", "0 (no)"],
  ["Cc1cccc(C)c1Cc1cnc[nH]1", "1 (yes)"],
  ["Cc1cccc(C)c1C(O)c1c[nH]cn1 (centres unmarked)", "0 (no)"],
  ["Clc1ccccc1Cc1c[nH]cn1", "0 (no)"],
  ["Cc1cccc(C)c1Cc1nc[nH]c1C", "1 (yes)"],
  ["CCc1ccccc1Cc1c[nH]cn1", "1 (yes)"],
  ["Cc1cc(C)c(Cc2c[nH]cn2)c(C)c1", "0 (no)"],
  ["CCOC(c1c[nH]cn1)c1c(C)cccc1C (centres unmarked)", "1 (yes)"]
]}

These entries and their values trace back to patent US4443466A.
